Biological target: human GPR119 (Homo sapiens, UniProt Q8TDV5)
Sequence (Q8TDV5 1-335): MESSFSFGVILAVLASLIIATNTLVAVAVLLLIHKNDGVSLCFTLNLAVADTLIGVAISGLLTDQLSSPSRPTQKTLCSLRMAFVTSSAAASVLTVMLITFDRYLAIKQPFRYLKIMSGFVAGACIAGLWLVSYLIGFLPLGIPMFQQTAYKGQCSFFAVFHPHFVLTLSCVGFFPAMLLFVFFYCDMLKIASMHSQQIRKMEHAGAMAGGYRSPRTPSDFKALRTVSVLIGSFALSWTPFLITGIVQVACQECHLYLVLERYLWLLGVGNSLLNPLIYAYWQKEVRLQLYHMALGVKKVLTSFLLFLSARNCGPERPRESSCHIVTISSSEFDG
Assay: Cyclic AMP assay in stable cell line (Flp-In-CHO-hGPR119, HTRF)
Conditions: Flp-In-CHO-hGPR119 cells, intracellular cAMP by HTRF, 1 mM IBMX, 37° C. for 30 minutes; read-out: CHO-GPR119-HTRF (3158)
API: label(entry) gives Satisfied if the entry's EC50 is strictly smaller than 100 nM; on equality or larger values it gives Not satisfied.

Consider CCc1cnc(N2CCC(Oc3ccc(CN4CCN(S(C)(=O)=O)CC4)cc3CCCOC)CC2)nc1 [Example C2] . Does its EC50 lie strictly below 100 nM?
Not satisfied

And the next one, CS(=O)(=O)N1CCN(Cc2ccc(OC3CCN(c4ccc(C(F)(F)F)cn4)CC3)cc2)CC1 [Example B6] ?
Not satisfied

And the next one, CC1(OC(=O)N2CCC(Oc3ccc(CN4CCN(S(C)(=O)=O)CC4)cc3Cl)CC2)CC1 [Example B3] ?
Satisfied

And the next one, CCc1cnc(N2CCC(Oc3ccc(CN4CCN(S(=O)(=O)CCCO)CC4)cc3Cl)CC2)nc1 [Example D1] ?
Satisfied

And the next one, CCc1cnc(N2CCC(Oc3ccc(CN4CC(N(C)S(C)(=O)=O)C4)cc3Cl)CC2)nc1 [Example E15] ?
Not satisfied

And the next one, CCc1cnc(N2CCC(Oc3ccc(CN4CCN(S(C)(=O)=O)CC4)cc3)CC2)nc1 [Example A1] ?
Satisfied

And the next one, CN(C)C(=O)c1cnc(N2CCC(Oc3ccc(CN4CCN(S(C)(=O)=O)CC4)cc3Cl)CC2)nc1 [Example B13] ?
Not satisfied

And the next one, Cn1nnc(-c2cnc(N3CCC(Oc4ccc(CN5CCN(S(C)(=O)=O)CC5)cc4Cl)CC3)nc2)n1 [Example B17] ?
Satisfied

====

Target: human GPR119 (Homo sapiens, UniProt Q8TDV5)
Sequence (Q8TDV5 1-335): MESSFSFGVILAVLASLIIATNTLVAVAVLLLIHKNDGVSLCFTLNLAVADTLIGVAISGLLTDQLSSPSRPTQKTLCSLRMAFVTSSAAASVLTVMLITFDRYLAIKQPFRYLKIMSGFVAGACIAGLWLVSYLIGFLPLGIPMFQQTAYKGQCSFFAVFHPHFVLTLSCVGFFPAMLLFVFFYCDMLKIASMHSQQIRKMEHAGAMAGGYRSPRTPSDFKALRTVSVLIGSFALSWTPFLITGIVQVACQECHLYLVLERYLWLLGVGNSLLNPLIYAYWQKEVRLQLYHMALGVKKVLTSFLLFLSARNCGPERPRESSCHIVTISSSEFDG
Experiment: Cyclic AMP assay in stable cell line (Flp-In-CHO-hGPR119, HTRF)
Conditions: Flp-In-CHO-hGPR119 cells, intracellular cAMP by HTRF, 1 mM IBMX, 37° C. for 30 minutes; read-out: CHO-GPR119-HTRF (3158)
test-readout: pEC50
Worth noting: pEC50 values are minus log10 of concentrations stated in mol/L.

Would you mind telling me what pEC50 value was observed for CCc1cnc(N2CCC(Oc3ccc(CC4CCN(S(C)(=O)=O)CC4)cc3Cl)CC2)nc1 [Example E2] ?
8.52

And the next one, CC(C)c1noc(N2CCC(Oc3ccc(CN4CCN(S(C)(=O)=O)CC4)cc3Cl)CC2)n1 ?
7.89

And the next one, CCc1cnc(N2CCC(Oc3ccc(CN4CCN(S(C)(=O)=O)CC4)nc3)CC2)nc1 ?
6.06

And the next one, CCc1cnc(N2CCC(Oc3ccc(CN4CCN(S(C)(=O)=O)CC4)cc3C(=O)OC)CC2)nc1 ?
6.50

And the next one, CCc1cnc(N2CCC(Oc3ccc(CN4CCC(c5nnn(C)n5)CC4)cc3Cl)CC2)nc1 ?
5.57

And the next one, CC1(OC(=O)N2CCC(Oc3ccc(CN4CCN(S(C)(=O)=O)CC4)cc3)CC2)CC1 ?
6.90

And the next one, CCc1cnc(N2CCC(Oc3ccc(CN4CCN(S(C)(=O)=O)CC4)cc3Br)CC2)nc1 ?
8.30

And the next one, CCc1cnc(N2CCC(Oc3ccc(CN4CCN(S(C)(=O)=O)CC4)cc3-c3ccn[nH]3)CC2)nc1 ?
7.36

Where do the numbers come from? From patent US20110263557A1.
